Tested on: HEK-293T
EXPERIMENT: Multiplex assay against HEK293T
Assay type: toxicity, cell-based
PROTOCOL CONDITIONS: human, 12 h, 1 µM, compound concentration 1 uM, replicate 2
MEASUREMENT NAME: Population Mitochondria Different-Phenotype (%)
Numbers only, in %.

Before answering, review these 5 worked examples.
molecule=CCOC(=O)Nc1cc(-c2ccc(C)c(NS(C)(=O)=O)c2)nn2c(C)nnc12 target_or_system=HEK-293T val=6
molecule="Cc1cccc(CN2CCN(C(c3ccccc3)c3ccc(Cl)cc3)CC2)c1.Cl.Cl (stereo unspecified)" target_or_system=HEK-293T val=25
molecule="COc1cc2ncn(-c3cc(OCc4ccccc4C(F)(F)F)c(C(N)=O)s3)c2cc1OC [GW843682X]" target_or_system=HEK-293T val=34
molecule="CCc1nn(CCCN2CCN(c3cccc(Cl)c3)CC2)c(=O)n1CCOc1ccccc1.Cl [NEFAZODONE HYDROCHLORIDE]" target_or_system=HEK-293T val=54
molecule="O=C(c1cc2c(cc1F)OC(c1ccc(F)cc1)(c1ccc(Cl)cc1Cl)O2)N1CCOCC1 (stereo unspecified)" target_or_system=HEK-293T val=24

As a next step, examine the molecule that follows.
Kindly indicate its recorded Population Mitochondria Different-Phenotype (%). Item: C=CC(=O)Nc1cccc(Oc2nc(Nc3ccc(N4CCN(C)CC4)cc3OC)ncc2Cl)c1
54
